Experimental system: UniProtKB Q9Y2R2
Sequence (Q9Y2R2 whole entry, looked up): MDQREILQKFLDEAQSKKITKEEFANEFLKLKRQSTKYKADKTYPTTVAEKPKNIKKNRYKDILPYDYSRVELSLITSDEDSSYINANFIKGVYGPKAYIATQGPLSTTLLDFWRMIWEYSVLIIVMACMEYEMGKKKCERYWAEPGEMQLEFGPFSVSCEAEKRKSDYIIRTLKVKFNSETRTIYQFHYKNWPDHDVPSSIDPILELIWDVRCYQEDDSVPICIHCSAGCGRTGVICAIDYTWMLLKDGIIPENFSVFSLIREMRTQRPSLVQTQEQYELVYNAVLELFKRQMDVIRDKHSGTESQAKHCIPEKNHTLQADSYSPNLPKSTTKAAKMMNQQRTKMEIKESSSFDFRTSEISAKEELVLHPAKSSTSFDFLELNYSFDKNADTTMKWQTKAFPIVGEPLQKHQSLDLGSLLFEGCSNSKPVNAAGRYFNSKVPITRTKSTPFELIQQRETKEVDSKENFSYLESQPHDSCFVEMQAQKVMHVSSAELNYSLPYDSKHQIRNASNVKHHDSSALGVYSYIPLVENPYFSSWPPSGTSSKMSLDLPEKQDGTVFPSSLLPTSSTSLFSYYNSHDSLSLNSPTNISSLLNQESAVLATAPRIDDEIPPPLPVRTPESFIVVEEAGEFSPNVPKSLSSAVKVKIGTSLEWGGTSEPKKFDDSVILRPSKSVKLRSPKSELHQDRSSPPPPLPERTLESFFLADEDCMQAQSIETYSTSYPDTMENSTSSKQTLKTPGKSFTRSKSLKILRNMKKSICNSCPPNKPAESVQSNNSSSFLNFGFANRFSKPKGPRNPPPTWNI
Assay: PTPN22 enzyme inhibition, catalase-containing buffer – biochemical, catalase added, Infinite200, 384-well (AID 1338)
Test conditions: Recombinant LYP, DiFMUP fluorescence, with catalase; at 10 µM; hits give high values
Measurement type: inhibition (%)

A selection of reference data follows.
O=[N+]([O-])c1cc(/C=N\Nc2nccs2)ccc1O = 4
O=C(c1cccs1)c1no[n+]([O-])c1C(=O)c1cccs1 = 51.5
Nc1c(C(=O)Nc2nc3ccccc3s2)sc2nc(-c3cccs3)ccc12 = 32.2
O=C(O)CCCN1C(=O)/C(=C/c2ccc(-c3nc4ccccc4s3)o2)SC1=S = 36.5
CC(C)C(C(=O)O)N1C(=O)/C(=C/C=C/c2ccco2)SC1=S (stereo unspecified) = 13

A = COc1cccc(OC)c1-c1nn2c(-c3cc(-c4ccccc4)n[nH]3)nnc2s1
B = Cn1nc(-c2ccc(Cl)cc2)nc2c(=O)n(C)c(=O)nc1-2
**Query** Could you tell me which of A and B has the lower inhibition reading? Identify your pick by its label.
**Result** B

a = O=C(O)CCN1C(=O)/C(=C/c2ccc(-c3nc4ccccc4s3)o2)SC1=S
b = CC(C(=O)O)N1C(=O)/C(=C/C=C/c2ccco2)SC1=S (stereo unspecified)
**Query** // max by inhibition over [ a , b ] Identify your pick by its label.
**Result** a
